Items are presented alongside their recorded IC50.
# Tested on: B-cells isolated from PBMC's
# Measurement Notes: Chymotrypsin-like ProteasomeGlo assay in B-cells isolated from PBMCs
# Type: cell-based, human
# Test Parameters: Homo sapiens; B-cells isolated from PBMC's; read-out: Pglo B-Cell

Solved cases (2 shown):
>>> assay_result("Cc1ccc2cc1CNC(=O)[C@H](CCc1ccccc1)NC(=O)[C@@H](NC1COC1)CC(=O)N1CCCC(CCO2)C1 (some centres unmarked)")
"< 100 nM"
>>> assay_result("Cc1ccc2cc1CNC(=O)[C@H](CCc1ccccc1)NC(=O)[C@@H](NC(=O)[C@H](C)c1ccccc1)CC(=O)N1CCCC(CCO2)C1 (some centres unmarked)")
"< 100 nM"

(Q) Would you mind telling me what IC50 value was observed for Cc1ccc2cc1CNC(=O)[C@H](CCc1ccccc1)NC(=O)[C@@H](NS(C)(=O)=O)CC(=O)N1CCCC(CCO2)C1 (some centres unmarked) ?
(A) < 100 nM

(Q) Would you mind telling me what IC50 value was observed for Cc1ccc2cc1CNC(=O)[C@H](CCc1ccccc1)NC(=O)[C@@H](NC(=O)CCc1cccc(F)c1)CC(=O)N1CCCC(CCO2)C1 (some centres unmarked) ?
(A) < 100 nM

(Q) Would you mind telling me what IC50 value was observed for Cc1ccc2cc1CNC(=O)[C@H](CCc1ccccc1)NC(=O)[C@@H](Nc1ccccn1)CC(=O)N1CCCC(CCO2)C1 (some centres unmarked) ?
(A) 100 to 500 nM

====

# System: HT-29 cells
# Measurement Notes: CellTiter-Glo luminescent cell viability assay with HT-29 cells (72h incubation)
# Type: cell-based, human
# Test Parameters: Homo sapiens, HT-29, HT29 cells, read-out: CTG HT29
Items are presented alongside their recorded IC50.

>>> assay_result("CC(=O)N[C@H]1CC(=O)N2CCCC(CCOc3ccc(C)c(c3)CNC(=O)C(c3coc(C)n3)NC1=O)C2 (some centres unmarked) [Compound 553]")
"< 100 nM"
>>> assay_result("CC(=O)N[C@H]1CC(=O)N2CCCC(CCOc3ccc(C)c(c3)CNC(=O)C(c3cc(C)n(C)n3)NC1=O)C2 (some centres unmarked) [Compound 561]")
"< 100 nM"
>>> assay_result("CC(=O)N[C@H]1CCC(=O)NCCCCOc2ccc(C)c(c2)CNC(=O)[C@H](CCc2ccccc2)NC1=O [Compound 171]")
"100 to 500 nM"
>>> assay_result("Cc1ccc2cc1CNC(=O)[C@H](CCc1ccccc1)NC(=O)[C@@H](NC(=O)OCc1ccccc1)CCCC(=O)N1CCC(CO2)C1 (some centres unmarked) [Compound 351]")
"100 to 500 nM"
>>> assay_result("CCNC(=O)N[C@H]1CC(=O)N2CCCC(CCOc3ccc(C)c(c3)CNC(=O)[C@H](CCc3ccccc3)NC1=O)C2 (some centres unmarked) [Compound 38]")
"< 100 nM"
>>> assay_result("Cc1ccc2cc1CNC(=O)[C@H](CCc1ccccc1)NC(=O)[C@@H](NC(=O)c1cccc3c1CNCC3)CC(=O)N1CCCC(CCO2)C1 (some centres unmarked) [Compound 316]")
"< 100 nM"
>>> assay_result("COc1ccccc1CC(=O)N[C@H]1CC(=O)N2CCCC(CCOc3ccc(C)c(c3)CNC(=O)[C@H](CCc3ccccc3)NC1=O)C2 (some centres unmarked) [Compound 84]")
"< 100 nM"
>>> assay_result("Cc1ccc2cc1CNC(=O)[C@H](CCc1ccccc1)NC(=O)[C@@H](NC(=O)CN1CCNCC1)CC(=O)N1CCCC(CCO2)C1 (some centres unmarked) [Compound 126]")
"100 to 500 nM"

Shifting focus to the molecule that follows.
(Q) Would you mind telling me what IC50 value was observed for Cc1ccc2cc1CNC(=O)[C@H](CCc1ccccc1)NC(=O)[C@@H](NC(=O)OCc1ccccc1)CCCC(=O)NCCCCO2 [Compound 322] ?
(A) 100 to 500 nM

====

# Target Or System: β5 subunit of the human constitutive proteasome (CPS) (Homo sapiens)
# Measurement Notes: β5 inhibition assay, human constitutive proteasome (Suc-LLVY-AMC)
# Test Parameters: IC50 class, Suc-LLVY-AMC substrate
Measured Metric: IC50

Solved cases (2 shown):
>>> assay_result("Cc1ccc2cc1CNC(=O)[C@H](CCc1ccccc1)NC(=O)[C@@H](NC(=O)CCOCCCC1CC1)CC(=O)N1CCCC(CCO2)C1 (stereo partly drawn) [Compound 626]")
"< 100 nM"
>>> assay_result("Cc1ccc2cc1CNC(=O)[C@H](CCc1ccccc1)NC(=O)[C@@H](NC(=O)Cc1nc(-c3ccccc3)n[nH]1)CC(=O)N1CCCC(CCO2)C1 (stereo partly drawn) [Compound 328]")
"< 100 nM"

Shifting focus to the molecule that follows.
(Q) Would you mind telling me what IC50 value was observed for CC(C)(CO)C(=O)N[C@H]1CC(=O)N2CCCC(CCOc3ccc(F)c(c3)CNC(=O)[C@H](CCc3ccccc3)NC1=O)C2 (stereo partly drawn) [Compound 684] ?
(A) < 100 nM

====

# Tested on: hPMBC
# Measurement Notes: Chymotrypsin-like ProteasomeGlo assay in hPBMC
# Type: cell-based
# Test Parameters: Homo sapiens; read-out: Pglo hPBMC
Measured Metric: IC50

>>> assay_result("COC(C(=O)N[C@H]1CC(=O)N2CCCC(CCOc3ccc(C)c(c3)CNC(=O)[C@H](CCc3ccccc3)NC1=O)C2)c1ccc(N)cc1 (stereo partly shown)")
"< 100 nM"

(Q) Would you mind telling me what IC50 value was observed for Cc1ccc2cc1CNC(=O)[C@H](CCc1ccccc1)NC(=O)[C@@H](NC(=O)C(C)(C)C#N)CC(=O)N1CCCC(CCO2)C1 (stereo partly shown) ?
(A) < 100 nM

(Q) Would you mind telling me what IC50 value was observed for CC(=O)N[C@H]1CCC(=O)N2CC3CC(Oc4ccc(C)c(c4)CNC(=O)[C@H](CCc4ccccc4)NC1=O)C3C2 (stereo partly shown) ?
(A) 1000 to 5000 nM

(Q) Would you mind telling me what IC50 value was observed for `Cc1ccc2cc1CNC(=O)[C@@H](CCc1ccccc1)NC(=O)[C@@H](NC(=O)OCc1ccccc1)CC(=O)N1CCC[C@H](CCO2)C1` ?
(A) 500 to 1000 nM

(Q) Would you mind telling me what IC50 value was observed for CNCCOCC(=O)N[C@H]1CC(=O)N2CCCC(CCOc3ccc(C)c(c3)CNC(=O)[C@H](CCc3ccccc3)NC1=O)C2 (stereo partly shown) ?
(A) < 100 nM

(Q) Would you mind telling me what IC50 value was observed for Cc1ccc2cc1CNC(=O)C(CCc1ccncc1)NC(=O)[C@@H](NC(=O)C1(c3ccc(N)cc3)CC1)CC(=O)N1CCCC(CCO2)C1 (stereo partly shown) ?
(A) < 100 nM

(Q) Would you mind telling me what IC50 value was observed for Cc1ccc2cc1CNC(=O)C(CCc1cnc3cccnc3c1)NC(=O)[C@@H](NC(=O)OCc1ccccc1)CC(=O)N1CCCC(CCO2)C1 (stereo partly shown) ?
(A) < 100 nM

(Q) Would you mind telling me what IC50 value was observed for Cc1ccc2cc1CNC(=O)[C@H](CCc1ccccc1)NC(=O)[C@@H](NC(=O)[C@H](C)c1ccccc1)CC(=O)N1CCCC(CCO2)C1 (stereo partly shown) ?
(A) < 100 nM

(Q) Would you mind telling me what IC50 value was observed for Cc1ccc2cc1CNC(=O)[C@H](CCc1ccccc1)NC(=O)[C@@H](NC(=O)CN1CCNCC1)CC(=O)N1CCCC(CCO2)C1 (stereo partly shown) ?
(A) < 100 nM

(Q) Would you mind telling me what IC50 value was observed for COC(=O)N(CC1NC(=O)[C@@H](NC(=O)OCc2ccccc2)CC(=O)N2CCCC(CCOc3ccc(C)c(c3)CNC1=O)C2)c1ccccc1 (stereo partly shown) ?
(A) < 100 nM

====

# Target Or System: β5 subunit of the human immunoproteasome (IPS) (Homo sapiens, UniProt P28062)
# Measurement Notes: β5 inhibition assay, human immunoproteasome (Suc-LLVY-AMC)
# Test Parameters: IC50 class, Suc-LLVY-AMC substrate
pIC50: −log10 of the molar value.
Items are presented alongside their recorded pIC50.

(Q) Would you mind telling me what pIC50 value was observed for Cc1ccc2cc1CNC(=O)[C@H](CCc1ccccc1)NC(=O)[C@@H](NC(=O)CCNCc1ccccc1)CC(=O)N1CCCC(CCO2)C1 (stereo partly drawn) ?
(A) > 7.00

====

# Tested on: Hs 746T (human gastric carcinoma cell line)
# Measurement Notes: 48 hr CTG viability assay, Hs 746T
# Format: cell-based
# Test Parameters: Hs746T, 48 hr CTG, read-out: Hs 746T IC50
Items are presented alongside their recorded IC50.

>>> assay_result("Cc1ccc2cc1CNC(=O)[C@H](CCc1ccccc1)NC(=O)[C@@H](NC(=O)C1CC3(C1)CN(C(=O)OC(C)(C)C)C3)CC(=O)N1CCCC(CCO2)C1 (stereo partly drawn) [Compound 580]")
"< 100 nM"

(Q) Would you mind telling me what IC50 value was observed for Cc1ccc2cc1CNC(=O)[C@H](CCc1ccccc1)NC(=O)[C@@H](NC(=O)C(C)(C)c1ccc3ncccc3c1)CC(=O)N1CCCC(CCO2)C1 (stereo partly drawn) [Compound 609] ?
(A) < 100 nM

(Q) Would you mind telling me what IC50 value was observed for Cc1ccc2cc1CNC(=O)[C@H](CCc1ccccc1)NC(=O)[C@@H](NC(=O)N1CCC(O)CC1)CC(=O)N1CCCC(CCO2)C1 (stereo partly drawn) [Compound 681] ?
(A) < 100 nM

(Q) Would you mind telling me what IC50 value was observed for Cc1ccc2cc1CNC(=O)[C@H](CCc1ccccc1)NC(=O)[C@@H](NC1CC3C=CC1C3)CC(=O)N1CCCC(CCO2)C1 (stereo partly drawn) [Compound 711] ?
(A) 100 to 500 nM

(Q) Would you mind telling me what IC50 value was observed for Cc1ccc2cc1CNC(=O)[C@H](CCc1ccccc1)NC(=O)[C@@H](NC(=O)C(C)(C)CO)CCC(=O)NCCCCO2 [Compound 726] ?
(A) 500 to 1000 nM

(Q) Would you mind telling me what IC50 value was observed for Cc1ccc2cc1CNC(=O)[C@H](CCc1ccccc1)NC(=O)[C@@H](NC(=O)N1CC(O)C1)CC(=O)N1CCCC(CCO2)C1 (stereo partly drawn) [Compound 691] ?
(A) < 100 nM
